system_under_test: human V2 receptor (Homo sapiens, UniProt P30518)
Sequence (P30518 whole entry): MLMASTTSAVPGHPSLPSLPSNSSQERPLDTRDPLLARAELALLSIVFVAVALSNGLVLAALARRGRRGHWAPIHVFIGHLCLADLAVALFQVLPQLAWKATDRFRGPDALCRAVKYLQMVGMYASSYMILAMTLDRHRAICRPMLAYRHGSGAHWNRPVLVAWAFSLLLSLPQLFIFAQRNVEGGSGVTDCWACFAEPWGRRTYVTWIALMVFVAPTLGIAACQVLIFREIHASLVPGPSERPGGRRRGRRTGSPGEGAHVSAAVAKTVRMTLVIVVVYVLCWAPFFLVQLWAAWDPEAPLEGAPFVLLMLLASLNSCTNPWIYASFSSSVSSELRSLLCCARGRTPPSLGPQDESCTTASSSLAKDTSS
assay_procedure: Cellular in vitro assay for determining vasopressin receptor activity (V2, CRE-luciferase)
experimental_parameters: CHO cell line transfected with the human V2 receptor; [Arg8]-vasopressin at EC50 concentration; read-out: IC50 hV2
pIC50: −log10 of the molar value.
quantity: pIC50

molecule=C[C@H](OC(N)=O)c1nc(Cn2nc(-c3ccc(Cl)cc3)n(C[C@H](OC(N)=O)C(F)(F)F)c2=O)nn1-c1ccccc1Cl quantity=pIC50 endpoint_value=8.56
molecule="CC(=O)NC(COC(C)(C)C)c1nc(Cn2nc(-c3ccc(Cl)cc3)n(C[C@H](O)C(F)(F)F)c2=O)nn1-c1ccccc1Cl (single isomer, unassigned) [Example 90]" quantity=pIC50 endpoint_value=5.31
molecule="CC(NC(=O)C(F)(F)F)c1nc(Cn2nc(-c3ccc(Cl)cc3)n(C[C@H](O)C(F)(F)F)c2=O)nn1-c1ccccc1Cl (mixture of isomers) [Example 73]" quantity=pIC50 endpoint_value=8.07

----------
Catalogue of pIC50 readings, one per entry.
system_under_test: human V2 receptor (Homo sapiens)
assay_procedure: Cellular in vitro assay for determining vasopressin receptor activity (V2, CRE-luciferase)
experimental_parameters: CHO cell line transfected with the human V2 receptor; [Arg8]-vasopressin at EC50 concentration; read-out: IC50 hV2
Description: B-1. Cellular In Vitro Assay for Determining Vasopressin Receptor Activity The identification of agonists and antagonists of the V1a and V2 vasopressin receptors from humans, rats and dogs as well as the quantification of the activity of the compounds of the invention is carried out using recombinant cell lines. […] The bioluminescence of the cell lines is detected using a suitable luminometer [Milligan G, Marshall F, Rees S, Trends in Pharmacological Sciences 17, 235-237 (1996)]. […]
pIC50: −log10 of the molar value. Structures can show the parent of a compound that is named as a salt.
quantity: pIC50

molecule=C[C@H](OC(N)=O)c1nc(Cn2nc(-c3ccc(Cl)cc3)n(C[C@H](O)C(F)(F)F)c2=O)nn1-c1ncccc1F quantity=pIC50 endpoint_value=6.90
molecule="CC(N)c1nc(Cn2nc(-c3ccc(Cl)cc3)n(C[C@H](O)C(F)(F)F)c2=O)nn1-c1ccccc1Cl (mixture of isomers) [Example 60, trifluoroacetate]" quantity=pIC50 endpoint_value=8.50
molecule=NC(=O)OCc1nc(Cn2nc(-c3ccc(Cl)cc3)n(C[C@H](OC(N)=O)C(F)(F)F)c2=O)nn1-c1ccccc1Cl quantity=pIC50 endpoint_value=8.53
molecule="CC(=O)NC(C)c1nc(Cn2nc(-c3ccc(Cl)cc3)n(C[C@H](O)C(F)(F)F)c2=O)nn1-c1ncccn1 (mixture of isomers)" quantity=pIC50 endpoint_value=5.81
molecule=C[C@H](OC(N)=O)c1nc(Cn2nc(-c3ccc(Cl)cc3)n(C[C@H](O)C(F)(F)F)c2=O)nn1-c1ccccc1S(N)(=O)=O quantity=pIC50 endpoint_value=6.87
molecule="CNc1ccncc1-n1nc(Cn2nc(-c3ccc(Cl)cc3)n(C[C@H](O)C(F)(F)F)c2=O)nc1C(C)NC(C)=O (single isomer, unassigned) [Example 127]" quantity=pIC50 endpoint_value=5.81

----------
system_under_test: UniProt P37288
assay_procedure: Cellular in vitro assay for determining vasopressin receptor activity (V1a, aequorin luminescence)
experimental_parameters: CHO cell line transfected with the human V1a receptor; [Arg8]-vasopressin at EC50 concentration; read-out: IC50 hV1a
The following compounds are listed with their measured IC50 values.
quantity: IC50 (nM)

compound=C[C@H](OC(N)=O)c1nc(Cn2nc(-c3ccc(Cl)cc3)n(C[C@H](O)C(F)(F)F)c2=O)nn1-c1cnccc1Cl endpoint_value=1.9
compound=COC(=O)N[C@@H](C)c1nc(Cn2nc(-c3ccc(Cl)cc3)n(C[C@H](O)C(F)(F)F)c2=O)nn1-c1cccc(Cl)c1 endpoint_value=21.4
compound=NC(=O)OCc1nc(Cn2nc(-c3ccc(Cl)cc3)n(C[C@H](OC(N)=O)C(F)(F)F)c2=O)nn1-c1ccccc1Cl endpoint_value=1.29
compound="CNc1ccncc1-n1nc(Cn2nc(-c3ccc(Cl)cc3)n(C[C@H](O)C(F)(F)F)c2=O)nc1C(C)NC(C)=O (single isomer, unassigned) [Example 126]" endpoint_value=1380
compound=C[C@H](OC(N)=O)c1nc(Cn2nc(-c3ccc(Cl)cc3)n(C[C@H](O)C(F)(F)F)c2=O)nn1-c1cccc(F)c1 endpoint_value=36.6
compound="CC(=O)NC(C)c1nc(Cn2nc(-c3ccc(Cl)cc3)n(C[C@H](O)C(F)(F)F)c2=O)nn1-c1ccccc1Cl (single isomer, unassigned) [Example 66]" endpoint_value=3.75

----------
system_under_test: human V2 receptor (Homo sapiens)
Construct: expressed in transfected cells; host or cells: CHO K1 (ATCC) expressing firefly luciferase under a CRE-responsive promoter
assay_procedure: Cellular in vitro assay for determining vasopressin receptor activity (V2, CRE-luciferase)
Format: cell-based
experimental_parameters: CHO cell line transfected with the human V2 receptor; [Arg8]-vasopressin at EC50 concentration; read-out: IC50 hV2
Where a name gives a salt, the structure may show the parent alone.
quantity: log10 IC50 (log10 of the value in nM)

compound="CC(=O)NC(C)c1nc(Cn2nc(-c3ccc(Cl)cc3)n(C[C@H](O)C(F)(F)F)c2=O)nn1-c1ncccc1Cl (single isomer, unassigned) [Example 109]" endpoint_value=2.61
compound=Cc1ccccc1-n1nc(Cn2nc(-c3ccc(Cl)cc3)n(C[C@H](OC(N)=O)C(F)(F)F)c2=O)nc1COC(N)=O endpoint_value=0.55
compound="O=C1NC(c2nc(Cn3nc(-c4ccc(Cl)cc4)n(C[C@H](O)C(F)(F)F)c3=O)nn2-c2ncccc2Cl)CO1 (single isomer, unassigned) [Example 113]" endpoint_value=2.13
compound=Cc1ccccc1-n1nc(Cn2nc(-c3ccc(Cl)cc3)n(C[C@H](O)C(F)(F)F)c2=O)nc1COC(N)=O endpoint_value=0.82
compound=NC(=O)OCc1nc(Cn2nc(-c3ccc(Cl)cc3)n(C[C@H](O)C(F)(F)F)c2=O)nn1-c1ccccc1C(F)(F)F endpoint_value=1.15
compound="CC(N)c1nc(Cn2nc(-c3ccc(Cl)cc3)n(C[C@H](O)C(F)(F)F)c2=O)nn1-c1ncccn1 (mixture of isomers) [Example 128, hydrochloride]" endpoint_value=3.33
compound="CC(=O)NC(CO)c1nc(Cn2nc(-c3ccc(Cl)cc3)n(C[C@H](O)C(F)(F)F)c2=O)nn1-c1ncccc1OC(F)(F)F (mixture of isomers) [Example 120]" endpoint_value=2.61
compound=CC(=O)NC1(c2nc(Cn3nc(-c4ccc(Cl)cc4)n(C[C@H](O)C(F)(F)F)c3=O)nn2-c2ccccc2Cl)CC1 endpoint_value=2.53
compound=CNC(=O)OCc1nc(Cn2nc(-c3ccc(Cl)cc3)n(C[C@H](O)C(F)(F)F)c2=O)nn1-c1cccc(F)c1 endpoint_value=0.97
compound="CNc1ccncc1-n1nc(Cn2nc(-c3ccc(Cl)cc3)n(C[C@H](O)C(F)(F)F)c2=O)nc1C(C)N (mixture of isomers) [Example 124, hydrochloride]" endpoint_value=1.87
compound="CN1C(=O)CCC1c1nc(Cn2nc(-c3ccc(Cl)cc3)n(C[C@H](O)C(F)(F)F)c2=O)nn1CCC(F)(F)F (mixture of isomers) [Example 130]" endpoint_value=3.43
compound="CC(=O)NC(CO)c1nc(Cn2nc(-c3ccc(Cl)cc3)n(C[C@H](O)C(F)(F)F)c2=O)nn1-c1ncccc1OC(F)(F)F (single isomer, unassigned) [Example 121]" endpoint_value=3.44

----------
Measured pIC50 of individual entries
system_under_test: human V1a receptor (Homo sapiens, UniProt P37288)
Construct: expressed in transfected cells; host or cells: CHO K1 (ATCC), also stably transfected with a modified aequorin
Sequence (P37288 whole entry): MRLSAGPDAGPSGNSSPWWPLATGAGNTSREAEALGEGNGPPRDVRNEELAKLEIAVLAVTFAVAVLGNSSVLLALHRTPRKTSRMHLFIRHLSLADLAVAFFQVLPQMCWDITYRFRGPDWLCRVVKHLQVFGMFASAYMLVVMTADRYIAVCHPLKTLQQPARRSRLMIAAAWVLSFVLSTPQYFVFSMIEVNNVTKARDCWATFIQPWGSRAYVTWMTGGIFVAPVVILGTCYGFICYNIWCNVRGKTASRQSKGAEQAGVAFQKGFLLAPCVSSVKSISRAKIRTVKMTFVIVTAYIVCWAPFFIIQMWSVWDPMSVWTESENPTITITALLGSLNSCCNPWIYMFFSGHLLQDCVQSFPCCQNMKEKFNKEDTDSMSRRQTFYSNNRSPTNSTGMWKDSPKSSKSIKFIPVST
assay_procedure: Cellular in vitro assay for determining vasopressin receptor activity (V1a, aequorin luminescence)
Type: cell-based
experimental_parameters: CHO cell line transfected with the human V1a receptor; [Arg8]-vasopressin at EC50 concentration; read-out: IC50 hV1a
pIC50: −log10 of the molar value. Where a name gives a salt, the structure may show the parent alone.
quantity: pIC50

compound="CC(=O)NC(C)c1nc(Cn2nc(-c3ccc(Cl)cc3)n(C[C@H](O)C(F)(F)F)c2=O)nn1-c1ncccc1Cl (mixture of isomers) [Example 107]" quantity=pIC50 endpoint_value=7.87
compound="NC(CO)c1nc(Cn2nc(-c3ccc(Cl)cc3)n(C[C@H](O)C(F)(F)F)c2=O)nn1-c1ccccc1Cl (mixture of isomers) [Example 81, hydrochloride]" quantity=pIC50 endpoint_value=8.90
compound="CN1C(=O)CCC1c1nc(Cn2nc(-c3ccc(Cl)cc3)n(C[C@H](O)C(F)(F)F)c2=O)nn1-c1ccccc1Cl (mixture of isomers) [Example 70]" quantity=pIC50 endpoint_value=9.09
compound=C[C@@H](OC(N)=O)c1nc(Cn2nc(-c3ccc(Cl)cc3)n(C[C@H](O)C(F)(F)F)c2=O)nn1-c1cccc(Cl)c1 quantity=pIC50 endpoint_value=7.54
compound="CC(=O)NC(CO)c1nc(Cn2nc(-c3ccc(Cl)cc3)n(C[C@H](O)C(F)(F)F)c2=O)nn1-c1ccccc1Cl (single isomer, unassigned) [Example 93]" quantity=pIC50 endpoint_value=9.11
compound="CC(C)(C)OCC(NC(=O)C(F)(F)F)c1nc(Cn2nc(-c3ccc(Cl)cc3)n(C[C@H](O)C(F)(F)F)c2=O)nn1-c1ccccc1Cl (mixture of isomers)" quantity=pIC50 endpoint_value=8.96
compound="CC(=O)NC(CO)c1nc(Cn2nc(-c3ccc(Cl)cc3)n(C[C@H](O)C(F)(F)F)c2=O)nn1-c1ncccc1OC(F)(F)F (single isomer, unassigned) [Example 121]" quantity=pIC50 endpoint_value=6.83
compound=C[C@@H](OC(N)=O)c1nc(Cn2nc(-c3ccc(Cl)cc3)n(C[C@H](O)C(F)(F)F)c2=O)nn1-c1c(Cl)cccc1Cl quantity=pIC50 endpoint_value=9.01
compound=C[C@H](OC(N)=O)c1nc(Cn2nc(-c3ccc(Cl)cc3)n(C[C@H](O)C(F)(F)F)c2=O)nn1-c1ncccc1F quantity=pIC50 endpoint_value=7.45
compound=C[C@H](OC(N)=O)c1nc(Cn2nc(-c3ccc(Cl)cc3)n(C[C@H](O)C(F)(F)F)c2=O)nn1-c1ncccc1OC(F)(F)F quantity=pIC50 endpoint_value=8.00
compound="CC(N)c1nc(Cn2nc(-c3ccc(Cl)cc3)n(C[C@H](O)C(F)(F)F)c2=O)nn1-c1cccc(F)c1 (mixture of isomers) [Example 53, trifluoroacetate]" quantity=pIC50 endpoint_value=7.74
compound="CC(=O)NC(C)c1nc(Cn2nc(-c3ccc(Cl)cc3)n(C[C@H](O)C(F)(F)F)c2=O)nn1-c1ncccc1Cl (single isomer, unassigned) [Example 109]" quantity=pIC50 endpoint_value=7.41
compound="O=C1NC(c2nc(Cn3nc(-c4ccc(Cl)cc4)n(C[C@H](O)C(F)(F)F)c3=O)nn2-c2ccccc2Cl)CO1 (mixture of isomers) [Example 98]" quantity=pIC50 endpoint_value=9.21
compound="C[C@H](N)c1nc(Cn2nc(-c3ccc(Cl)cc3)n(C[C@H](O)C(F)(F)F)c2=O)nn1-c1cccc(Cl)c1 [Example 57, hydrochloride]" quantity=pIC50 endpoint_value=7.88
compound="CNc1ccncc1-n1nc(Cn2nc(-c3ccc(Cl)cc3)n(C[C@H](O)C(F)(F)F)c2=O)nc1C(C)N (mixture of isomers) [Example 124, hydrochloride]" quantity=pIC50 endpoint_value=7.47
compound=O=C1CC[C@@H](c2nc(Cn3nc(-c4ccc(Cl)cc4)n(C[C@H](O)C(F)(F)F)c3=O)nn2-c2cnccc2Cl)N1 quantity=pIC50 endpoint_value=8.96
compound="CN1C(=O)CC[C@@H]1c1nc(Cn2nc(-c3ccc(Cl)cc3)n(C[C@H](O)C(F)(F)F)c2=O)nn1-c1ncccc1Cl (single isomer, unassigned) [Example 104]" quantity=pIC50 endpoint_value=8.51
compound=C[C@H](OC(N)=O)c1nc(Cn2nc(-c3ccc(Cl)cc3)n(C[C@H](O)C(F)(F)F)c2=O)nn1-c1ncccc1Cl quantity=pIC50 endpoint_value=8.76
compound="CC(=O)NC(COC(C)(C)C)c1nc(Cn2nc(-c3ccc(Cl)cc3)n(C[C@H](O)C(F)(F)F)c2=O)nn1-c1ccccc1Cl (single isomer, unassigned) [Example 89]" quantity=pIC50 endpoint_value=8.46
compound="CN1C(=O)CC[C@@H]1c1nc(Cn2nc(-c3ccc(Cl)cc3)n(C[C@H](O)C(F)(F)F)c2=O)nn1-c1ncccc1Cl (single isomer, unassigned) [Example 105]" quantity=pIC50 endpoint_value=8.68
compound=C[C@H](OC(N)=O)c1nc(Cn2nc(-c3ccc(Cl)cc3)n(C[C@H](O)C(F)(F)F)c2=O)nn1-c1cccc(Cl)c1 quantity=pIC50 endpoint_value=7.38
compound=COCCNC(=O)OCc1nc(Cn2nc(-c3ccc(Cl)cc3)n(C[C@H](O)C(F)(F)F)c2=O)nn1-c1ccccc1C(F)(F)F quantity=pIC50 endpoint_value=8.41
compound="O=C1NC(c2nc(Cn3nc(-c4ccc(Cl)cc4)n(C[C@H](O)C(F)(F)F)c3=O)nn2-c2ncccc2OC(F)(F)F)CO1 (mixture of isomers) [Example 117]" quantity=pIC50 endpoint_value=7.67
